src = ChEMBL document CHEMBL4334447

# solubility kinetic at 24 h annotations
Assay: Kinetic aqueous solubility of the compound in pH 7.4 phosphate buffered saline incubated for 24 hrs under shaking condition by HPLC analysis
Type: physicochemical
Settings: read-out: Kinetic_solubility
Only the number, expressed in µg/mL, is required.

solubility kinetic at 24 h for `Cc1cc2cn[nH]c2cc1-c1ccc(F)c2c(N)c(C(N)=O)cnc12` ?
5.2

solubility kinetic at 24 h for `COc1cc2cn[nH]c2cc1-c1ccc(F)c2c(N)c(C(N)=O)cnc12` ?
7.3

Query molecule follows.
solubility kinetic at 24 h for `Cc1cc2cn[nH]c2cc1-c1cccc2c(N)c(C(N)=O)cnc12` ?
10.5

====

Biological target: Tyrosine-protein kinase BTK (Homo sapiens, UniProt Q06187, C481S)
Sequence (Q06187 whole entry C481S): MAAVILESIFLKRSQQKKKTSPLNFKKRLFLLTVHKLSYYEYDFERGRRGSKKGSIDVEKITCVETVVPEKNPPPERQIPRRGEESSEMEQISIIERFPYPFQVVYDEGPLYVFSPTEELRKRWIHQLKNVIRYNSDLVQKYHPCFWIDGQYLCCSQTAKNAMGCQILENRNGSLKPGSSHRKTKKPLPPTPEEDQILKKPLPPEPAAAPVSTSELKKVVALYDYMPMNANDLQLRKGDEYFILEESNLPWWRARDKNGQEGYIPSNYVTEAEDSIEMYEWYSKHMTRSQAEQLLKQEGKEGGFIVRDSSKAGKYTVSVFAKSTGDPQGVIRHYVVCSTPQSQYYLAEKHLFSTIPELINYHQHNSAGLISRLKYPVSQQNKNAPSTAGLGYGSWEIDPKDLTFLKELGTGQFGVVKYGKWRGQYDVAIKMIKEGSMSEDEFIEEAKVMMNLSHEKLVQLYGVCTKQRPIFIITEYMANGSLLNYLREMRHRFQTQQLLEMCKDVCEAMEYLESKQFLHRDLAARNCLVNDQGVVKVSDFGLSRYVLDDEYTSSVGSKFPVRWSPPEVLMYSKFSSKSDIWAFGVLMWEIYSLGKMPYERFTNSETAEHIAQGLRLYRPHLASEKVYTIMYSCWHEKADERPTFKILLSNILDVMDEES
Assay: biochemical
MEASUREMENT LABEL: pIC50
Notebook: values listed as pIC50 are -log10 of the concentration (mol/L).

pIC50 for `COc1cc2cn[nH]c2cc1-c1ccc(F)c2c(N)c(C(N)=O)cnc12` ?
7.41

====

Target: Tyrosine-protein kinase Fyn (Homo sapiens)
Sequence (P06241 whole entry): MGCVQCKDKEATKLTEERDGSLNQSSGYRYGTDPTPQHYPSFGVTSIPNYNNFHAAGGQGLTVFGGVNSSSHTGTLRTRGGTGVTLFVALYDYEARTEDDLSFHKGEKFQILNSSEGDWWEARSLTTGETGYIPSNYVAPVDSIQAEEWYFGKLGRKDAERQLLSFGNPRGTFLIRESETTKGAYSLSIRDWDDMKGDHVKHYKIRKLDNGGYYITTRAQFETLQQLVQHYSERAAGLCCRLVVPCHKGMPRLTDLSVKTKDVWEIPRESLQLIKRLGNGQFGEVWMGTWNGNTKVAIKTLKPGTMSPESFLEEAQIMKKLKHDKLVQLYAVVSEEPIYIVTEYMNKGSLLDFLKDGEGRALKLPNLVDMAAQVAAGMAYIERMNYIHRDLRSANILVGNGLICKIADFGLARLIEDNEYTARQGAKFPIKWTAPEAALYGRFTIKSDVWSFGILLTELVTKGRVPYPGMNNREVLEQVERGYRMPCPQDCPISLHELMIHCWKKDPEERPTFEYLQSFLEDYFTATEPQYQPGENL
Test: Inhibition of human full-length recombinant FYN using KVEKIGEGTYGVVYK as substrate measured after 40 mins in presence of [gamma-33P]-ATP by scintillation counting analysis
MEASUREMENT LABEL: IC50 (nM)
Only the number, expressed in nM, is required.

IC50 for `COc1cc2cn[nH]c2cc1-c1ccc(F)c2c(N)c(C(N)=O)cnc12` ?
165

====

Target: Tyrosine-protein kinase ITK/TSK (Homo sapiens)
Sequence (Q08881 whole entry, the tested form may be a part): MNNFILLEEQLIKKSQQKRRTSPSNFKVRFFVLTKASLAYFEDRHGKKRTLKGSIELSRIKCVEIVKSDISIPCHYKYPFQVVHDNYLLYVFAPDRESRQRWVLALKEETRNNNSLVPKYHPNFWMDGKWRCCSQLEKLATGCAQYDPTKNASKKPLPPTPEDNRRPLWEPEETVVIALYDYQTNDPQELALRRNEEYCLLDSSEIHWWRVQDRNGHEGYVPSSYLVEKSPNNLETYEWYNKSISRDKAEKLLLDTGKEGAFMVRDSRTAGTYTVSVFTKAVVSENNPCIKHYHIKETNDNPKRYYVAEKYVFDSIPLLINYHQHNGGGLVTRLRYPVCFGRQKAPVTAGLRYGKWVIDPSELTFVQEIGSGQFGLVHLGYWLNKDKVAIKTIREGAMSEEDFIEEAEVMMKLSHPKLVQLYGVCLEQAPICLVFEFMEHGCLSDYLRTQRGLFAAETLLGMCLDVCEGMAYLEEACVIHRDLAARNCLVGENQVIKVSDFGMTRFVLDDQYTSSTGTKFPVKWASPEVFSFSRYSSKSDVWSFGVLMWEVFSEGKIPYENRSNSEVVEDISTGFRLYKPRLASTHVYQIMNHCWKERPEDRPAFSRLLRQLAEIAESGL
Assay: Inhibition of recombinant human ITK (352 to 617 residues) using myelin basic protein as substrate measured after 40 mins in presence of [gamma33P]ATP by scintillation counting analysis
MEASUREMENT LABEL: IC50 (nM)
Only the number, expressed in nM, is required.

IC50 for `COc1cc2cn[nH]c2cc1-c1ccc(F)c2c(N)c(C(N)=O)cnc12` ?
307

====

Target: Tyrosine-protein kinase Yes (Homo sapiens)
Sequence (P07947 whole entry): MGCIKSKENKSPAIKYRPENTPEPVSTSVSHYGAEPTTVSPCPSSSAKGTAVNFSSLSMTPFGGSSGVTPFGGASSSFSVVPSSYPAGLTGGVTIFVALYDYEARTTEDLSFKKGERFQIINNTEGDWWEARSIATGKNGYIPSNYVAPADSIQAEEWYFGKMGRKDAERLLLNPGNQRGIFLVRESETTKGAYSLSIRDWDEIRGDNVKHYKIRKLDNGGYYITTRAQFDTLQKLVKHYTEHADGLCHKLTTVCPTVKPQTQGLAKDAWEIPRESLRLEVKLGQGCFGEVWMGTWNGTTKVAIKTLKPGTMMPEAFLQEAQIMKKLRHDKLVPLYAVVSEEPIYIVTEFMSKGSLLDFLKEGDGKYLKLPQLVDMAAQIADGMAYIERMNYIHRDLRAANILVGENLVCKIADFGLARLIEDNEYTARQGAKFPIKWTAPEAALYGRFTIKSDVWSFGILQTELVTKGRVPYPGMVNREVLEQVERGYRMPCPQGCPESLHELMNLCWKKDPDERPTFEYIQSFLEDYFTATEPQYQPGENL
Test: Inhibition of human full-length recombinant YES using poly(Glu, Tyr) 4:1 as substrate measured after 40 mins in presence of [gamma-33P]-ATP by scintillation counting analysis
pIC50: −log10 of the molar value.
MEASUREMENT LABEL: pIC50

Enter reported pIC50 observed with Tyrosine-protein kinase Yes (Homo sapiens) for `COc1cc2cn[nH]c2cc1-c1ccc(F)c2c(N)c(C(N)=O)cnc12`
< 5.00

====

Assay: Oral bioavailability in Sprague-Dawley rat at 5 mg/kg by LC-MS/MS analysis
Assay type: ADME, organism-based
Conditions: in vivo
MEASUREMENT LABEL: bioavailability (%)
Only the number, expressed in %, is required.

bioavailability for `COc1cc2cn[nH]c2cc1-c1ccc(F)c2c(N)c(C(N)=O)cnc12` ?
25

====

Test: Stability in mouse plasma assessed as parent compound remaining at 1 uM measured after 2 hrs by LC-MS/MS analysis
Format: ADME, cell-free
Conditions: read-out: Stability
MEASUREMENT LABEL: remaining at 2 h, 1 µM (%)
Only the number, expressed in %, is required.

remaining at 2 h, 1 µM for `COc1cc2cn[nH]c2cc1-c1ccc(F)c2c(N)c(C(N)=O)cnc12` ?
98

====

Experiment: Volume of distribution in Sprague-Dawley rat at 2 mg/kg, iv or 5 mg/kg, po by LC-MS/MS analysis
Type: ADME, organism-based
Settings: in vivo
MEASUREMENT LABEL: Vd (L/kg)
Only the number, expressed in L/kg, is required.

Vd for `COc1cc2cn[nH]c2cc1-c1ccc(F)c2c(N)c(C(N)=O)cnc12` ?
2.1
